All figures here come from patent US6897209B2.

Test method notes: Normal rat biodistribution
Format: in vivo
Condition summary: 15 min post-injection, i.v., male Wistar rats, Mean±SD n=3
Each entry gets Criterion not met if its % ID Liver stays under 8 % ID, and Criterion met if its % ID Liver is 8 % ID or above.

Please review the entries below; each comes with its answer.
>  <Compound>
CC(CNCc1ccccc1O)(CNCc1ccccc1O)CNC(=O)c1ccc(S(=O)(=O)NCCCCCN)cc1

>  <Discrete label>
Criterion met

$$$$
>  <Compound>
CC(=NO)C(C)(C)NCC(C)(CNC(=O)C1CCC(CNC(=O)c2ccc(S(=O)(=O)NCCCCCN)cc2)CC1)CNC(C)(C)C(C)=NO (centres unmarked)

>  <Discrete label>
Criterion met

$$$$
>  <Compound>
CC(=NO)C(C)(C)NCCN(CCNC(=O)C1CCC(CNC(=O)c2ccc(S(=O)(=O)NCCCCCN)cc2)CC1)CCNC(C)(C)C(C)=NO (centres unmarked)

>  <Discrete label>
Criterion not met

$$$$

Attention now shifts to the item below.
Prompt: Hi, just wondering whether NCCCCCNS(=O)(=O)c1ccc(C(=O)NCCCNC(=O)c2ccc(NN)nc2)cc1 shows % ID Liver of 8 % ID or higher.
Completion: Criterion not met

* * *

System under test: human plasma clots (Homo sapiens, UniProt P00488)
Construct: Factor XIII is transformed into its active form Factor XIIIa by thrombin in the presence of calcium ions; from tissue; host or cells: human plasma, clotted in vitro with thrombin and calcium chloride
Sequence (P00488 39-732): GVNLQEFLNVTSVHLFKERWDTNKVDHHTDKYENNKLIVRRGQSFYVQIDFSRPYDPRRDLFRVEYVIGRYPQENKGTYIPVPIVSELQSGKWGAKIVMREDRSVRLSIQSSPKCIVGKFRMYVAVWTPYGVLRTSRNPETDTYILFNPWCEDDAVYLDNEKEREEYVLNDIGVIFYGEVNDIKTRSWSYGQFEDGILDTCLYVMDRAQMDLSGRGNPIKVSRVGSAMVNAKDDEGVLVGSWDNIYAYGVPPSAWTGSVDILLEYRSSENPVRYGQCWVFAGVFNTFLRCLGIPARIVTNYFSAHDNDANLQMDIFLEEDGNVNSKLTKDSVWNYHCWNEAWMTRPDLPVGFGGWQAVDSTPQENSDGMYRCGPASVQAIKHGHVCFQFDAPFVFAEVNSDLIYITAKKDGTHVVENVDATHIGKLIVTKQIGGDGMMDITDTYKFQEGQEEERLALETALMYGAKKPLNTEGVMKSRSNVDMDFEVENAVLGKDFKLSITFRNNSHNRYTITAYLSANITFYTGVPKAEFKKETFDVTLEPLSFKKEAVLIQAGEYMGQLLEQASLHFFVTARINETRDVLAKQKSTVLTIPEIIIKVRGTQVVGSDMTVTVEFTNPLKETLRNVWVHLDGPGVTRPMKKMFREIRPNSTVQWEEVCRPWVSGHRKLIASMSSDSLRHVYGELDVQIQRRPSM
Test method notes: Incorporation into human plasma clots (in vitro plasma clot assay)
Format: biochemical
Condition summary: human plasma with thrombin and calcium chloride, 60 minutes, ca. 20° C.
Please respond with YES when measured % retained in plasma clot assay (with thrombin) is strictly beneath 6%, and with NO in all other cases.

Please review the entries below; each comes with its answer.
>  <Molecule>
CC(=NO)C(C)(C)NCC(C)(CNC(=O)c1ccc(S(=O)(=O)NCCSCCN)cc1)CNC(C)(C)C(C)=NO (centres unmarked)

>  <Discrete label>
NO

$$$$
>  <Molecule>
CC(=NO)C(C)(C)NCC(C)(CNC(=O)[C@@H](CO)NC(=O)[C@@H](CO)NC(=O)[C@@H](CO)NC(=O)c1ccc(S(=O)(=O)NCCCCCN)cc1)CNC(C)(C)C(C)=NO (some centres unmarked)

>  <Discrete label>
YES

$$$$
>  <Molecule>
CC(=NO)C(C)(C)NCC(C)(CNC(=O)CCCCCN)CNC(C)(C)C(C)=NO (centres unmarked)

>  <Discrete label>
YES

$$$$
>  <Molecule>
CC(=NO)C(C)(C)NCC(C)(CNC(=O)c1ccc(S(=O)(=O)NCCCCCN)cc1)CNC(C)(C)C(C)=NO (centres unmarked)

>  <Discrete label>
NO

$$$$
>  <Molecule>
CC(=NO)C(C)(C)NCC(C)(CNC(=O)c1ccc(NC(=O)CCCCCN)cc1)CNC(C)(C)C(C)=NO (centres unmarked)

>  <Discrete label>
YES

$$$$

Prompt: Is the reported % retained in plasma clot assay (with thrombin) for CC(=NO)C(C)(C)NCC(C)(CNC(=O)N1CCN(CNC(=O)c2ccc(S(=O)(=O)NCCCCCN)cc2)CC1)CNC(C)(C)C(C)=NO (centres unmarked) strictly below 6%?
Completion: NO

Prompt: Next: CC(=NO)C(C)(C)NCCN(CCNC(=O)c1ccc(S(=O)(=O)NCCCCCN)cc1)CCNC(C)(C)C(C)=NO
Completion: YES

Prompt: Next: CC(=NO)C(C)(C)NCC(C)(CNC(=O)C1CCC(CNC(=O)c2ccc(S(=O)(=O)NCCCCCN)cc2)CC1)CNC(C)(C)C(C)=NO (centres unmarked)
Completion: NO

Prompt: Next: CC(CNCc1ccccc1O)(CNCc1ccccc1O)CNC(=O)c1ccc(S(=O)(=O)NCCCCCN)cc1
Completion: NO

Prompt: Next: CC(=NO)C(C)(C)NCC(C)(CN)CNC(C)(C)C(C)=NO (centres unmarked)
Completion: YES

* * *

Test method notes: Normal rat biodistribution
Assay type: in vivo
Condition summary: 30 min post-injection, i.v., male Wistar rats, Mean±SD n=3
The following molecules are shown together with reported % ID Urine values.
I only need the number, in % ID, no unit after it.

>  <Molecule>
CC(=NO)C(C)(C)NCCN(CCNC(=O)c1ccc(S(=O)(=O)NCCCCCN)cc1)CCNC(C)(C)C(C)=NO [Compound 16]

>  <Parameter measured>
% ID Urine

>  <Measured value>
48.0

$$$$
>  <Molecule>
CC(=NO)C(C)(C)NCC(C)(CNC(=O)c1ccc(S(=O)(=O)NCCCCCN)cc1)CNC(C)(C)C(C)=NO (stereo not drawn) [Compound 3]

>  <Parameter measured>
% ID Urine

>  <Measured value>
14.42

$$$$

Below: the item to evaluate.
Prompt: State the recorded % ID Urine for this entry: NCCCCCNS(=O)(=O)c1ccc(C(=O)NCCCNC(=O)c2ccc(NN)nc2)cc1 [Compound 24]
Completion: 31.0

* * *

The following compounds are shown together with reported % ID GI Tract values.
Test method notes: Normal rat biodistribution
Type: in vivo
Condition summary: 60 min post-injection, i.v., male Wistar rats, Mean±SD n=3
I only need the number, in % ID, no unit after it.

Reference set, count: 3
>  <Compound>
NCCCCCNS(=O)(=O)c1ccc(C(=O)NCCCNC(=O)c2ccc(NN)nc2)cc1 [Compound 24]

>  <% ID GI Tract, % ID>
38.8

$$$$
>  <Compound>
CC(=NO)C(C)(C)NCC(C)(CNC(=O)c1ccc(S(=O)(=O)NCCCCCN)cc1)CNC(C)(C)C(C)=NO (stereo not shown) [Compound 3]

>  <% ID GI Tract, % ID>
79.9

$$$$
>  <Compound>
CC(=NO)C(C)(C)NCC(C)(CNC(=O)CCCCCN)CNC(C)(C)C(C)=NO (stereo not shown) [Compound 4]

>  <% ID GI Tract, % ID>
68.6

$$$$

Below: the item to evaluate.
Prompt: State the recorded % ID GI Tract for this entry: CC(=NO)C(C)(C)NCCN(CCNC(=O)C1CCC(CNC(=O)c2ccc(S(=O)(=O)NCCCCCN)cc2)CC1)CCNC(C)(C)C(C)=NO (stereo not shown) [Compound 17]
Completion: 17.7

* * *

Test method notes: Normal rat biodistribution
Type: in vivo
Condition summary: 60 min post-injection, i.v., male Wistar rats, Mean±SD n=3
Each entry gets rule not met if its % ID Muscle stays under 2 % ID, and rule met if its % ID Muscle is 2 % ID or above.

Please review the entries below; each comes with its answer.
>  <Compound>
CC(=NO)C(C)(C)NCC(C)(CNC(=O)c1ccc(S(=O)(=O)NCCCCCN)cc1)CNC(C)(C)C(C)=NO (stereo not shown) [Compound 3]

>  <Discrete label>
rule not met

$$$$
>  <Compound>
CC(=NO)C(C)(C)NCCN(CCNC(=O)C1CCC(CNC(=O)c2ccc(S(=O)(=O)NCCCCCN)cc2)CC1)CCNC(C)(C)C(C)=NO (stereo not shown) [Compound 17]

>  <Discrete label>
rule met

$$$$

Attention now shifts to the item below.
Prompt: Hi, just wondering whether NCCCCCNS(=O)(=O)c1ccc(C(=O)NCCCNC(=O)c2ccc(NN)nc2)cc1 [Compound 24] shows % ID Muscle of 2 % ID or higher.
Completion: rule met

* * *

Test method notes: Normal rat biodistribution
Assay type: in vivo
Condition summary: 240 min post-injection, i.v., male Wistar rats, Mean±SD n=3
The following compounds are shown together with reported % ID Blood values.
I only need the number, in % ID, no unit after it.

>  <Compound>
CC(=NO)C(C)(C)NCC(C)(CNC(=O)c1ccc(S(=O)(=O)NCCCCCN)cc1)CNC(C)(C)C(C)=NO (stereo not shown)

>  <% ID Blood (% ID)>
0.11

$$$$
>  <Compound>
CC(=NO)C(C)(C)NCC(C)(CNC(=O)C1CCC(CNC(=O)c2ccc(S(=O)(=O)NCCCCCN)cc2)CC1)CNC(C)(C)C(C)=NO (stereo not shown)

>  <% ID Blood (% ID)>
0.1

$$$$
>  <Compound>
CC(=NO)C(C)(C)NCCN(CCNC(=O)c1ccc(S(=O)(=O)NCCCCCN)cc1)CCNC(C)(C)C(C)=NO

>  <% ID Blood (% ID)>
0.04

$$$$
>  <Compound>
CC(=NO)C(C)(C)NCCN(CCNC(=O)C1CCC(CNC(=O)c2ccc(S(=O)(=O)NCCCCCN)cc2)CC1)CCNC(C)(C)C(C)=NO (stereo not shown)

>  <% ID Blood (% ID)>
0.09

$$$$
>  <Compound>
NCCCCCNS(=O)(=O)c1ccc(C(=O)NCCCNC(=O)c2ccc(NN)nc2)cc1

>  <% ID Blood (% ID)>
0.29

$$$$

Prompt: State the recorded % ID Blood for this entry: CC(CNCc1ccccc1O)(CNCc1ccccc1O)CNC(=O)c1ccc(S(=O)(=O)NCCCCCN)cc1
Completion: 0.62

Prompt: Next: CC(=NO)C(C)(C)NCC(C)(CNC(=O)CCCCCN)CNC(C)(C)C(C)=NO (stereo not shown)
Completion: 0.21
